Reference source: ChEMBL document CHEMBL1139115

- Organism: Homo sapiens
- protocolSummary: Selectivity for human TR-alpha-1 to human TRbeta1
outcomeMeasure: Ratio IC50
Please give the numeric answer without any surrounding text.

Q: Any idea what its Ratio IC50 is? The compound is O=C(O)CCc1cc(Br)c(OCc2cccc(Br)c2)c(Br)c1
Ans: 0.97

Q: What do you get for Cc1ccc(COc2c(Br)cc(CCC(=O)O)cc2Br)cc1 ?
Ans: 0.98

Q: What do you get for CCNc1cccc(COc2c(Br)cc(CCC(=O)O)cc2Br)c1 ?
Ans: 3.4

Q: What do you get for Cc1ccccc1COc1c(Br)cc(CCC(=O)O)cc1Br ?
Ans: 3.8
